These measurements were taken from ChEMBL document CHEMBL3804756.

# Target Under Test: Histamine H3 receptor (Homo sapiens, UniProt Q9Y5N1)
# Sequence (Q9Y5N1 whole entry): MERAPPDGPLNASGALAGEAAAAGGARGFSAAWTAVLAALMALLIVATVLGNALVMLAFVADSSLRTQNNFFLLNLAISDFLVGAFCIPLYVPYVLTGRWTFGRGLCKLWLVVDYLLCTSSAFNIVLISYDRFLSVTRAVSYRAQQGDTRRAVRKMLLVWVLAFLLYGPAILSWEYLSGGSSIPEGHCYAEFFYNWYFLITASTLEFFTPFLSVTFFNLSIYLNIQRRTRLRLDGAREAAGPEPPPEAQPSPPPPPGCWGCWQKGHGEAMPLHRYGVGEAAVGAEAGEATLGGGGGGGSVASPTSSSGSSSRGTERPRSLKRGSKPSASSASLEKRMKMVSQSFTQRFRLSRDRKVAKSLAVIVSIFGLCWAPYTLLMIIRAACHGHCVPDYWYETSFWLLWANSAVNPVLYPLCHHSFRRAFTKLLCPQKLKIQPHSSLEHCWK
# Experimental Details: Displacement of [3H]N-alpha-methylhistamine from human histamine H3 receptor expressed in sf9 cell membrane co-expressing mammalian Galphai2 and Gbeta1gamma2 incubated for 60 mins by liquid scintillation counting method
Catalogue of compounds with associated log10(Ki)
Please interpret these as log10 of Ki where Ki is in nM.

# count of solved cases: 3
compound N#C/N=C(/NCCSc1ccccc1)NC[C@H]1CC[C@@H](c2c[nH]cn2)C1 , log10(Ki) observed: 2.87

Reported log10(Ki) of CN/C(=N\C#N)NC[C@@H]1CC[C@H](c2c[nH]cn2)C1 : 2.68

Quick note, log10(Ki) for CN/C(=N\C#N)NC[C@H]1CC[C@@H](c2c[nH]cn2)C1 landed at 3.98

New cases:
Notebook: CN/C(=N\C#N)NC[C@@H]1CC[C@H](c2c[nH]cn2)C1 (racemic) , log10(Ki) read as 2.93

Record N#C/N=C(/NCCSc1ccccc1)NC[C@H]1CC[C@H](c2c[nH]cn2)C1 (racemic) , field log10(Ki): 3.09

response.value for N#C/N=C(/NCCSc1ccccc1)NC[C@H]1CC[C@H](c2c[nH]cn2)C1 (field: log10(Ki)) = 3.33

Recorded log10(Ki) (compound CN/C(=N\C#N)NC[C@H]1CC[C@H](c2c[nH]cn2)C1 (racemic) ): 2.92

Measured log10(Ki), N#C/N=C(/NCCSc1ccccc1)NC[C@@H]1CC[C@H](c2c[nH]cn2)C1 (racemic) : 3.13

log10(Ki) measured on CN/C(=N\C#N)NC[C@@H]1CC[C@@H](c2c[nH]cn2)C1 = 3.75

For this compound ( N#C/N=C(/NCCSc1ccccc1)NC[C@@H]1CC[C@H](c2c[nH]cn2)C1 ), measured log10(Ki) is 2.94

The value of log10(Ki) measured for the compound N#C/N=C(/NCCSc1ccccc1)NC[C@@H]1CC[C@@H](c2c[nH]cn2)C1 turned out to be 2.77

// field: log10(Ki); key: CN/C(=N\C#N)NC[C@H]1CC[C@H](c2c[nH]cn2)C1 ; value = 2.98
